B1: VEGF-DΔNΔC [human] / Recombinant human VEGFR-3-Fc chimera [human] (parent complex)
chain 1: FYDIETLKVIDEEWQRTQCSPRETCVEVASELGKSTNTFFKPPCVNVFRCGGCCNEESLICMNTSTSYISKQLFEISVPLTSVPELVPVKVANHTGCKCLPTAPRHPYS
chain 2: YSMTPPTLNITEESHVIDTGDSLSISCRGQHPLEWAWPGAQEAPATGDKDSEDTGVVRDCEGTDARPYCKVLLLHEVHANDTGSYVCYYKYIKARIEGTTAASSYVFVRDFEQPFINKPDTLLVNRKDAMWVPCLVSIPGLNVTLRSQSSVLWPDGQEVVWDDRRGMLVSTPLLHDALYLQCETTWGDQDFLSNPFLVHITGNELYDIQLLPRKSLELLVGEKLVLNCTVWAEFNSGVTFDWDYPGKQAERGKWVPERRSQQTHTELSSILTIHNVSQHDLGSYVCKANNGIQRFRESTEVIVHENPFISVEWLKGPILEATAGDELVKLPVKLAAYPPPEFQWYKDGKALSGRHSPHALVLKEVTEASTGTYTLALWNSAAGLRRNISLELVVNVPPQIHEKEASSPSIYSRHSRQALTCTAYGVPLPLSIQWHWRPWTPCKMFAQRSLRRRQQQDLMPQCRDWRAVTTQDAVNPIESLDTWTEFVEGKNKTVSKLVIQNANVSAMYKCVVSNKVGQDERLIYFYVTTIPDGFTIESKPSEELLEGQPVLLSCQADSYKYEHLRWYRLNLSTLHDAHGNPLLLDCKNVHLFATPLAASLEEVAPGARHATLSLSIPRVAPEHEGHYVCEVQDRRSHDKHCHKKYLSVQALEAPRLTQNLTDLLVNVSDSLEMQCLVAGAHAPSIVWYKDERLLEEKSGVDLADSNQKLSIQRVREEDAGRYLCSVCNAKGCVNSSASVAVEGSEDKGSME

variants of: B1; assay: ELISA; The same amount of each VEGF-DΔNΔC variant was used; assays conducted three times; parent: 100; read off a plot
Assign percent of parent to each entry below.

>  <mutation list>
chain 1 D3A

>  <recorded metric>
percent of parent

>  <result>
~96%

$$$$

Hey, quick one: what's percent of parent for each of these?
1. chain 1 I10A
2. chain 1 Q15A
3. chain 1 D11A
4. chain 1 F1A

Reply:
1: ~9%; 2: ~110%; 3: ~160%; 4: ~72%
